target: BuChE hserum (Homo sapiens, UniProt P06276); assay: Inhibition of butyrylcholinesterase from human serum (Ellman method)
Sequence (P06276 29-602): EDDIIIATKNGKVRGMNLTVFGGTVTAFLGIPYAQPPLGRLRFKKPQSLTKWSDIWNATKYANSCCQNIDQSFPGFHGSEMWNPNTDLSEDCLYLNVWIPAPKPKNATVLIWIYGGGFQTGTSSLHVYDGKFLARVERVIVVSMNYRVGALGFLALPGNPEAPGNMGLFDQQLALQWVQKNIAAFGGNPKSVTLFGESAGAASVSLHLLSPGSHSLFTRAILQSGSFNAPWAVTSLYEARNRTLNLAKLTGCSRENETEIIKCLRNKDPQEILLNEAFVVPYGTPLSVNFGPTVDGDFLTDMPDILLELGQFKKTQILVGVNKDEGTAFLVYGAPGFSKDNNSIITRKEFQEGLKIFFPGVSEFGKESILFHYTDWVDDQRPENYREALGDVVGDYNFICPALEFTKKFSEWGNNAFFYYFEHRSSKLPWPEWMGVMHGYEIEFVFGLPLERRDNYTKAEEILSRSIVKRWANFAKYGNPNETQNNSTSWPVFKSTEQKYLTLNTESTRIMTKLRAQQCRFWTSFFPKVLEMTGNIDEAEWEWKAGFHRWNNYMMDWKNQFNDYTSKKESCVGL
metric: pIC50
Answers are plain numbers, as −log10 of the molar value.

Lookup: Find the recorded pIC50 belonging to CCCCCCCNC(=O)Oc1ccc2c(c1)[C@]1(C)CCN(C)[C@@H]1N2C [Eptastigmine, heptylcarbamic ester of the eseroline, reference compound] and report it.
Found: 6.85

Lookup: Find the recorded pIC50 belonging to Cc1cccc(NC(=O)Oc2cccc(C(C)(C)CN(C)C)c2)c1 and report it.
Found: 6.30

# batch size: 3; output pIC50 per entry
1. C[C@@H]1CN(CCCCCCCCNC(=O)Oc2cccc(C(C)(C)CN(C)C)c2)C[C@H](C)O1
2. CN(C)CC(C)(C)c1cccc(OC(=O)N(C)c2cccc(Cl)c2)c1
3. CCCCCCCNC(=O)Oc1cccc(C(C)(C)CN(C)C)c1

Found:
1: 7.70; 2: 3.66; 3: 7.52
